tested on: SK-MEL-5 melanoma; test: NCI tumour cell line growth inhibition, 48 h
Listing of recorded TGI by entry.

CC1OC(OC2C(O)C(OCCc3ccc(O)c(O)c3)OC(CO)C2OC(=O)/C=C/c2ccc(O)c(O)c2)C(O)C(O)C1OC1OCC(O)(CO)C1O (stereo not drawn) | > 100 µM

compound Nc1ccccc1C#C/C=C\C#Cc1cnccn1 , TGI observed: 21.3 µM

The recorded TGI for entry CC(C)N(C(=O)C12C3C4C1C1C2C3C41C(=O)O)C(C)C (stereo not drawn) equals > 100 µM

Lookup result for COc1cc(/C=C/C(=O)Oc2ccc(NC(C)=O)cc2)ccc1C(=O)OCc1ccccc1 ; measured TGI: > 100 µM

Record COc1cc(/C=C/C(=O)c2ccc(Nc3nc(Nc4ccc(F)cc4)nc(Nc4ccc(Cl)cc4)n3)cc2)cc(OC)c1OC . Reported TGI: 19 µM

Consider CCOC(=O)/C(=C\c1ccccc1)C(=O)CCN1CCOCC1 . Its measured TGI is 25.3 µM

====

system: SK-MEL-28 melanoma; experiment: NCI tumour cell line growth inhibition, 48 h
Recorded Metric: TGI

Completed entries (count: 5):
CNc1ccc(/C=C2\C=Cc3ccccc32)cc1 | > 100 µM
C=CCn1c(SCC(=O)Nc2ccc(C(=O)/C=C/c3cc(OC)c(OC)c(OC)c3)cc2)nnc1-c1ccc(Cl)cc1 | 54.6 µM
CN(C)c1nc(=Nc2ccc3c(c2)OCO3)ss1 | > 100 µM
O=C(Nc1c(Cl)cccc1Cl)c1c(Cl)c(Cl)c(Cl)c(Cl)c1-c1nc2ccccc2[nH]1 | > 100 µM
CCN(C(=N)C#N)c1ccccc1 | > 100 µM

Note to self: TGI recorded for COc1ccc(C2/C(=C(\O)c3ccccc3)C(=O)C(O)(CC(=O)c3ccccc3)N2c2ccc(OC)cc2)cc1 (stereo not given) was > 86.4 µM

Reported TGI ( N#Cc1c(-c2ccc([N+](=O)[O-])cc2)cc(-c2ccc(Nc3ccnc4cc(C(F)(F)F)ccc34)cc2)[nH]c1=O ) = > 100 µM

// recorded TGI for C[n+]1cn(C2=C([O-])c3ccccc3C(=O)/C2=N\S(=O)(=O)c2ccccc2)c2ccccc21 : > 100 µM

Reported TGI ( CCN(CC)CCn1ncc2c3c(=O)c4cccnc4n(CCN(CC)CC)c3ccc21 ) = > 10 µM

Query Cc1c([C@H](C(Cl)Cl)[C@H](O)[C@H]2C[C@H](C)C(=O)O2)ccc2c1C(=O)[C@H]1[C@H]2C[C@@H](Br)[C@@]23O[C@@H](CO[C@H]2O)CC13C (stereo not given in full) yields TGI of > 50 µM

// sample CCCCC1CC(c2ccc(Cl)cc2)=NO1 (stereo not given) , its TGI was > 100 µM

COc1ncc(-c2ccc3nccc(C#CCCCCC(=O)O)c3c2)cc1NS(=O)(=O)c1ccc(F)cc1F yielded TGI of > 100 µM

Lab book: TGI of CCOC(=O)NC(Nc1ccc(OC(F)(F)F)cc1)(C(F)(F)F)C(F)(F)F noted as > 100 µM

According to the records, this compound NCCCCCCn1c(-c2ccc(Br)cc2)csc1=Nc1ccccc1 displays TGI of 27.2 µM

Lab book: TGI of COc1ccc(Nc2nn3c(=O)c4c(C)c(C)sc4nc3s2)cc1 noted as > 100 µM

====

test system: MALME-3M melanoma; assay: NCI tumour cell line growth inhibition, 48 h
Consider the following compounds and their measured TGI readings.

Looking up CCCCC(=O)OC[n+]1cccc(-c2c(COC(=O)NC(C)C)c(COC(=O)NC(C)C)c3n2CCC3)c1 , I see its TGI listed as > 100 µM

So for O=C(/C=C/c1cc2ccccc2[nH]c1=O)c1ccc(Cl)cc1 , the logged TGI turned out to be > 70.7 µM

Lab note: CNC(=O)C(CCc1ccccc1)NC(=O)C(CC(=O)NO)CC(C)C (stereo not given) gave TGI of > 25 µM

Data point: Cc1cccc(C(C)(C)C)c1NC(=O)CCl ; TGI = > 100 µM

TGI reading for C=CCSc1nc2c(N)ncnc2n1C1OC(CO)C(O)C1O (stereo not given) : > 100 µM

====

tested on: HT29 colon; assay: NCI tumour cell line growth inhibition, 48 h
Recorded Metric: TGI

Consider the reported TGI for these compounds:
Cc1cc(NS(=O)(=O)c2ccc(Nc3c4ccccc4nc4c(C(=O)Nc5ccc(S(N)(=O)=O)cc5)cccc34)cc2)no1 | > 100 µM
CCCCC(=O)OC[n+]1cccc(-c2c(COC(=O)NC(C)C)c(COC(=O)NC(C)C)c3n2CCC3)c1 | > 100 µM
CN(C)c1ccc(Nc2ncnc3ccccc23)cc1 | > 100 µM
CCNCCCCNCCCCNCCCCNCCCCNCC | > 100 µM
N#C/C(C(=O)Nc1ccccc1)=C(/N)N1CCCC1 | > 100 µM

Field: next compound
For reference, reported TGI for C[C@]1(O)CC[C@H]2[C@@H]3CCc4cc(O)ccc4[C@H]3CC[C@@]21C stands at > 100 µM

====

test system: CAKI-1 renal; experiment: NCI tumour cell line growth inhibition, 48 h
Reported TGI values for a set of compounds

Some compounds with known TGI results, for comparison:
N#Cc1c(-c2ccc([N+](=O)[O-])cc2)cc(-c2ccc(Nc3ccnc4cc(C(F)(F)F)ccc34)cc2)[nH]c1=O | > 100 µM
COc1ccc2c3c1O[C@H]1[C@@H](O)CC[C@@]4(O)[C@@H](C2)N(C)CC[C@]314 | > 100 µM

Okay, next one:
Param item: COc1cc(C(=O)c2c(-c3ccccc3)oc3c(OC)cccc23)cc(OC)c1O ; param system: CAKI-1 renal; output TGI: 26.7 µM

====

Catalogue of TGI readings, one per entry.
test system: NCI-H522 lung; experiment: NCI tumour cell line growth inhibition, 48 h

Please review the entries below; each comes with its answer.
c1cc(-c2ccc(-c3ccc(-c4ccc(-c5cccc6nsnc56)[nH]4)c4nsnc34)[nH]2)c2nsnc2c1 | > 100 µM
COc1cc(/C=C/C(=O)c2ccc(Nc3nc(Nc4ccc(F)cc4)nc(Nc4ccc(Cl)cc4)n3)cc2)cc(OC)c1OC | > 53.9 µM

Simply: O=C1c2ccccc2C(=Nc2ccc3ccccc3c2)C1(C1=C(c2ccccc2)C(=Nc2ccc3ccccc3c2)c2ccccc21)c1ccccc1 (centres undefined) , NCI-H522 lung, TGI = > 100 µM

The observed TGI for COc1ccc2c3c1O[C@H]1[C@@H](O)CC[C@@]4(O)[C@@H](C2)N(C)CC[C@]314 when tested with NCI-H522 lung stands at > 100 µM

====

tested on: IGROV1 ovarian; assay: NCI tumour cell line growth inhibition, 48 h
# reported TGI; entries follow
Give just the number in µM; leave the unit off.

N#Cc1c2c(c(Cl)n3c1nc1ccccc13)CCCC2 | 8.28

Entry C=C1CC2(OC1=O)C(=O)N(C)c1ccc(I)cc12 (stereo not given) , TGI reported as 4.56

Per the record, O=C(NO)C(=O)Nc1cc(Cl)ccc1Cl has TGI of 55.3

====

tested on: HOP-62 NSCLC; experiment: NCI tumour cell line growth inhibition, 48 h
Recorded Metric: GI50

C=CCn1c(SCC(=O)Nc2ccc(C(=O)/C=C/c3cc(OC)c(OC)c(OC)c3)cc2)nnc1-c1ccc(Cl)cc1 | 3.76 µM
O=C1c2ccccc2C(=O)c2c1c(=O)c(=O)c1ccccc1c(=O)n2Cc1ccccc1 | > 100 µM
C=C1c2c(C)nn(-c3ccc(OC)cc3)c2N(C)C23C[C@@H]1C1(C)c4c(C)nn(-c5ccc(OC)cc5)c4N(C)C(C)(C[C@H]12)C3 (stereo partly drawn) | 4.28 µM
COc1cc(/C=C/C(=O)Nc2ccc3c(c2)/C(=C\c2cccn2C)C(=O)N3)cc(OC)c1OC | 3.71 µM
C=C1C(=O)O[C@H]2[C@H]1CC/C(CNC(=O)c1cccc3ccccc13)=C\CC[C@@]1(C)O[C@@H]21 | 14.1 µM

Note to self: GI50 of Nc1ccccc1C#C/C=C\C#Cc1cnccn1 with HOP-62 NSCLC was 13.6 µM

Entry COc1ccc(-c2c(-c3cc(OC)c(OC)c(OC)c3)nc3sc(C4CC4)nn23)cc1OC , HOP-62 NSCLC data, GI50 value: 1.58 µM

Result for O=C1NC(=O)/C(=C/c2c(Cl)nc3sccn23)S1 , tested on HOP-62 NSCLC, GI50: > 100 µM

====

test system: 786-0 renal; experiment: NCI tumour cell line growth inhibition, 48 h
Recorded Metric: TGI

# annotated cases, reported TGI shown
O=C(c1ccc(Cl)cc1Cl)N(/N=C/C=C/c1ccccc1)c1nnc(-c2ccccc2)c(-c2ccccc2)n1 | > 100 µM
O=C(NC(=S)Nc1ccccn1)c1ccccc1 | > 100 µM
CCN(CC)CCn1ncc2c3c(=O)c4cccnc4n(CCN(CC)CC)c3ccc21 | > 10 µM
COc1ncc(-c2ccc3nccc(C#CCCCCC(=O)O)c3c2)cc1NS(=O)(=O)c1ccc(F)cc1F | 17.3 µM
CCn1c2ccccc2c2cc(/C=C(/C#N)C(N)=S)ccc21 | 39.4 µM

Entry COC(=O)[C@@H]1C[C@@]23CCCN4CC[C@@]5(c6cccc(OC)c6N(C=O)[C@]15CC2)[C@@H]43 , tested on 786-0 renal, has a reported TGI of > 100 µM

The measured TGI that O=C(ON=c1c2ccccc2ccc2ccccc12)c1ccccc1 showed for 786-0 renal is > 62.4 µM
